Origin of values: patent US20230408517A1

- Target entity: recombinant monomeric SARS-CoV-1 S1 protein (SARS-CoV-1, UniProt P59594 14-667)
- Assay method text: flow cytometry, blocking of binding to hACE-2 cells
Observation type: percent blocking (%)
Numbers only, in %.

Reference set, count: 4
1035224 (antibody, V domains shown) VH: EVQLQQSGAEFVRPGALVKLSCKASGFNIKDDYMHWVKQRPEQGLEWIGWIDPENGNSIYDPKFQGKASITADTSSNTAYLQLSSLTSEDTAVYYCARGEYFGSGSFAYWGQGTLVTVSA VL: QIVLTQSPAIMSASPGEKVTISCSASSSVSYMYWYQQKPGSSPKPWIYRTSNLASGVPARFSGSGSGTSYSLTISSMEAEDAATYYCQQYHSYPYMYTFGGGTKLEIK; 0
1035709 (antibody, V domains shown) VH: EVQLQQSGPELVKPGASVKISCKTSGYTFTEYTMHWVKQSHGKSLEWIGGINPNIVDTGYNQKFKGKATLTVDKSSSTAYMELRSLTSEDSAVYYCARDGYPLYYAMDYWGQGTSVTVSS VL: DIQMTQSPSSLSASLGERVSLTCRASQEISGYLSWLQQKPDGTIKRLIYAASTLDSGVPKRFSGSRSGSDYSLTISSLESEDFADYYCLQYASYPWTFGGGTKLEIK; 0
1035419 (antibody, V domains shown) VH: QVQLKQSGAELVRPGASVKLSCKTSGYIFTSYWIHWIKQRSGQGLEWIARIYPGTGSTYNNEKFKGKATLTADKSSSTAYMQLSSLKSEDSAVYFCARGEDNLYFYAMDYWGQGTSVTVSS VL: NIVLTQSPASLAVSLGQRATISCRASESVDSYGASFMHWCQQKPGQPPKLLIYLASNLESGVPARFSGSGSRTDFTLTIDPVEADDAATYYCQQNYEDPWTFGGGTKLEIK; 88.5
1035753 (antibody, V domains shown) VH: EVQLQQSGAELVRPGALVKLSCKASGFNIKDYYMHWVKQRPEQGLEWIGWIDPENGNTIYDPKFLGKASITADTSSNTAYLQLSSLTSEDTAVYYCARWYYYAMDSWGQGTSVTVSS VL: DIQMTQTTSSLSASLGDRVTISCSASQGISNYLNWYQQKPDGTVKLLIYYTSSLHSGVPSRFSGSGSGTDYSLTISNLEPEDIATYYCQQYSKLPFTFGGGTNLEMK; 0

### Prompt Given the entry 1035211 (antibody, V domains shown) VH: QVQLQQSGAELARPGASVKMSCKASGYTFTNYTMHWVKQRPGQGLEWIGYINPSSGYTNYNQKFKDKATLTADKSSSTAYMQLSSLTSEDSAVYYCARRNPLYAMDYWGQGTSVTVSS VL: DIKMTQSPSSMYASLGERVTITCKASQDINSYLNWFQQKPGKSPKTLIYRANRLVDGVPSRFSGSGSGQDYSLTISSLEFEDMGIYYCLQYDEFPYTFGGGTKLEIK , report its measured percent blocking.
### Response 0
